Entries below carry reported IC50 on phosphorylated active hERK2 enzyme (Homo sapiens (Human), UniProt P28482).
Sequence (P28482 whole entry): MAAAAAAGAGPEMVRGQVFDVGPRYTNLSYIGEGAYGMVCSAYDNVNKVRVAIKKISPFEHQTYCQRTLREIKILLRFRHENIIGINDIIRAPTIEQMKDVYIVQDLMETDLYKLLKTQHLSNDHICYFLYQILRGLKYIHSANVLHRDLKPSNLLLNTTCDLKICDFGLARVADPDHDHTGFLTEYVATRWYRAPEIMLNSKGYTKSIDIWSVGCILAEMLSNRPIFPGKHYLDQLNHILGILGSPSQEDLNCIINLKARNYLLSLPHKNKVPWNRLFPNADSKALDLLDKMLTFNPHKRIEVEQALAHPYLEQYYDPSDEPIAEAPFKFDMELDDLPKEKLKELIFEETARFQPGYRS
reported metric: IC50 (nM)

1. Cc1cc(-n2ncc3cc(NC(=O)N[C@H]4CCCC[C@@H]4NC(=O)c4ccccc4)ncc32)ccn1 (racemic) : 711
2. CCO[C@H]1CCC[C@@H]1NC(=O)Nc1cc2cnn(-c3ccnc(C)c3)c2cn1 (racemic) : 33.7
3. Cc1cc(-n2ncc3cc(NC(=O)N[C@H]4CCCC[C@H]4c4ccc(F)cc4)ncc32)ccn1 (racemic) : 19.1

====

# tested system: phosphorylated active hERK2 enzyme (Homo sapiens (Human), UniProt P28482)
# test settings: read-out: ERK2 IC50; IMAP-FP assay; 0.5 nM hERK2, 30 μM ATP; 10 point titration, 3 μM starting concentration
pIC50: −log10 of the molar value.
reported metric: pIC50

1. Cc1cncc(-n2ncc3cc(NC(=O)N[C@H](C)c4ccccc4)ncc32)n1 : 6.26
2. C[C@@H](NC(=O)Nc1cc2cnn(-c3ccc(F)cc3)c2c(CNCCN(C)C)n1)c1ccccc1 : 5.91
3. Cc1cc(-n2ncc3cc(NC(=O)N[C@H]4CCC[C@@H]4Oc4cccnc4)ncc32)ccn1 : 6.29
4. CO[C@H]1CN(Cc2c(F)cccc2F)C[C@@H]1NC(=O)Nc1cc2cnn(-c3ccnc(C)c3)c2cn1 (single isomer, unassigned) [Example 273] : 5.69

====

# tested system: phosphorylated active hERK2 enzyme (Homo sapiens (Human), UniProt P28482)
# test settings: read-out: ERK2 IC50; IMAP-FP assay; 0.5 nM hERK2, 30 μM ATP; 10 point titration, 3 μM starting concentration
pIC50: −log10 of the molar value.
reported metric: pIC50

1. Cc1cc(-n2ncc3cc(NC(=O)NCc4csc5ccccc45)ncc32)ccn1 : 7.07
2. Cc1cc(-n2ncc3cc(NC(=O)N[C@H](C)c4ccccc4Cl)ncc32)ccn1 : 7.81
3. Cc1cc(-n2ncc3cc(NC(=O)NCCC(F)(F)F)ncc32)ccn1 : 7.33
4. COCCn1ncc2cc(NC(=O)N[C@H](C)c3ccccc3)nc(CO)c21 : 6.53
5. COCCNCc1nc(NC(=O)N[C@H](C)c2ccccc2)cc2cnn(-c3ccc(F)cc3)c12 : 6.85
6. Cc1cc(-n2ncc3cc(NC(=O)N[C@@H]4CN(C)[C@@H](C)[C@H]4c4ccccc4C)ncc32)ccn1 : 8.67
7. Cc1cc(-n2ncc3cc(NC(=O)N[C@H]4CCC[C@@H]4Oc4ccccc4)ncc32)ccn1 : 7.87
8. Cc1cc(-n2ncc3cc(NC(=O)NCC(c4ccccn4)N4CCOCC4)ncc32)ccn1 (stereo not shown) : 6.61
9. CO[C@H]1CN(C)C[C@@H]1NC(=O)Nc1cc2cnn(-c3ccnc(C)c3)c2cn1 [Example 193] : 5.60
10. Cc1cc(-n2ncc3cc(NC(=O)NCc4ccccc4)ncc32)ccn1 : 8.08
11. Cc1cc(-n2ncc3cc(NC(=O)NCC(CO)c4ccccc4)ncc32)ccn1 (stereo not shown) : 8.12
12. Cc1cc(-n2ncc3cc(NC(=O)N[C@H]4[C@H](c5ccccc5)CN(C)C45COC5)ncc32)ccn1 [Example 107] : 8.04
13. Cc1cc(-n2ncc3cc(NC(=O)NCc4ccc(F)c(Cl)c4)ncc32)ccn1 : 8.39
14. Cc1cc(-n2ncc3cc(NC(=O)N[C@@H]4CN(C)C[C@H]4c4ccccc4C(F)(F)F)ncc32)ccn1 : 6.63
15. Cc1cc(-n2ncc3cc(NC(=O)N[C@H](C)c4ccccc4)nc(COC4COC4)c32)ccn1 : 7.60
16. Cc1cc(-n2ncc3cc(NC(=O)N[C@H](C)c4ccccc4)nc(C)c32)ccn1 : 8.55
17. Cc1cc(-n2ncc3cc(NC(=O)N[C@H](Cn4ccnc4)c4ccccc4)ncc32)ccn1 : 6.32
18. CCN(CC)C(=O)[C@@H](NC(=O)Nc1cc2cnn(-c3ccnc(C)c3)c2cn1)c1ccccc1 : 7.05
19. Cc1cc(-n2ncc3cc(NC(=O)N[C@H]4CN(C)C[C@@H]4c4sccc4C)ncc32)ccn1 : 8.15
20. Cc1cc(-n2ncc3cc(NC(=O)N[C@H](C)c4ccccc4)nc(CNCCN(C)C)c32)ccn1 : 7.06
21. C[C@@H](NC(=O)Nc1cc2cnn(-c3ccc(F)cc3)c2c(COCCN2CCOCC2)n1)c1ccccc1 : 6.73
22. CCNC(=O)[C@@H](NC(=O)Nc1cc2cnn(-c3ccnc(C)c3)c2cn1)c1ccccc1 : 8.59
23. Cc1cc(-n2ncc3cc(NC(=O)NC4CCN(c5ccccc5)CC4)ncc32)ccn1 : 5.76
24. Cc1cc(-n2ncc3cc(NC(=O)N[C@H](CN4CCOCC4)c4ccccc4)ncc32)ccn1 : 6.82
25. Cc1cc(-n2ncc3cc(NC(=O)NCC(C)O)ncc32)ccn1 (stereo not shown) : 6.97
